Molecular target: T1, cynomolgus monkey CD40 (cynomolgus monkey, UniProt P25942 21-193 (human entry), limits assumed)
T1 chain: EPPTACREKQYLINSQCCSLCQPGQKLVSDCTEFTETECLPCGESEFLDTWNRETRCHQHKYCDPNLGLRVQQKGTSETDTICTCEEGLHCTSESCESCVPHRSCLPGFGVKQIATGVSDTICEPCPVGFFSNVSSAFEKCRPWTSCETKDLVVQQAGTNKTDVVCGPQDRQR
Assay: Octet

binder	kon (M⁻¹ s⁻¹)
36F3 (antibody, IgG4, V domains shown, also called 4891-1) VH: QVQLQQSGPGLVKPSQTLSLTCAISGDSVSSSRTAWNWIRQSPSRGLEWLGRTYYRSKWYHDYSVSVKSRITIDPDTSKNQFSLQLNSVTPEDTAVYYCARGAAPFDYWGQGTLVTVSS VL: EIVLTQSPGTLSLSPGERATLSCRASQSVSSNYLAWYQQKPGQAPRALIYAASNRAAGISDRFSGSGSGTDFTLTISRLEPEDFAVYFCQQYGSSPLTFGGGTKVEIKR	52200
4G7 (antibody, IgG4, V domains shown, also called 4869-1) VH: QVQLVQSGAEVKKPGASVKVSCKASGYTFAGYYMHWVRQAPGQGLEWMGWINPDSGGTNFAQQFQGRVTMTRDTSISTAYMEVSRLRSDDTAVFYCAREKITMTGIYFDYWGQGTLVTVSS VL: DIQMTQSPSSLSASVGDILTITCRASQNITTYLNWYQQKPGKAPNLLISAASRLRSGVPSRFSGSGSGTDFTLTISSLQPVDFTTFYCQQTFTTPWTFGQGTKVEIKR	1.13e+06
37A6 (antibody, IgG4, V domains shown, also called 4865-1) VH: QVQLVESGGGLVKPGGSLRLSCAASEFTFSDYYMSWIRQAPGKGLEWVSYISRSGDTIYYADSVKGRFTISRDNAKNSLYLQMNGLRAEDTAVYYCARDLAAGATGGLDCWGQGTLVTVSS VL: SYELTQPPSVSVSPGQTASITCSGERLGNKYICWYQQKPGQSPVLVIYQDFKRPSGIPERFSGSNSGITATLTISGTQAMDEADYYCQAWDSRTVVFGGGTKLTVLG	531000
